ASSAY_TARGET: RARγ Retinoid (Homo sapiens, UniProt P13631)
Sequence (P13631 whole entry): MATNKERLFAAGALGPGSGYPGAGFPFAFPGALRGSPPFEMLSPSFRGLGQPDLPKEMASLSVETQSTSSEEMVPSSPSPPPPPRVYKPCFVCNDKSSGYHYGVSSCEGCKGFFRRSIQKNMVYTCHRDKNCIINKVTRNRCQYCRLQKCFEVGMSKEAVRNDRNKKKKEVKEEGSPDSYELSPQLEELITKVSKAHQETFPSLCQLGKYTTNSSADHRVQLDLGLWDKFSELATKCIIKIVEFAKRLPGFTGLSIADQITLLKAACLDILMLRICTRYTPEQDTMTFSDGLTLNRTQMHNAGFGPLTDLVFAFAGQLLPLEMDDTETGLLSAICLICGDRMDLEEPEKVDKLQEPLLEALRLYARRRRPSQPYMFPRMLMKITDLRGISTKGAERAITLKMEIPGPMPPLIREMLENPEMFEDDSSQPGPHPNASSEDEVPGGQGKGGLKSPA

- CHEMICAL_STRING: "COc1cccc(OC)c1NC(=O)c1ccc(Cc2cc3c(cc2C)C(C)(C)CCC3(C)C)o1"
  Ki: "> 10 µM"

* * *

Quick reference: Rat male pmol/min/mg 1 μM of the listed items.
ASSAY_OVERVIEW: Metabolism rate, pmol/min/mg at 1 μM, rat male
Type: in vitro ADME
SETTINGS: 1 μM compound

- COMPOUND: "COc1cc(OC)c(NC(=O)c2ccc(Cc3c(C)cc(C)cc3C)o2)c(OC)c1 [Compound 168]"
  Rat male pmol/min/mg 1 μM: "1087 pmol/min/mg"
- COMPOUND: "Cc1ccc(C(C)(C)C)cc1Cc1ccc(C(=O)NCc2cccc(CNc3ccnc(NC[C@H]4CCCO4)n3)c2)o1 [Compound 212]"
  Rat male pmol/min/mg 1 μM: "3282 pmol/min/mg"
- COMPOUND: "Cc1cc2c(cc1Cc1ccc(C(=O)NCc3ccccc3F)o1)C(C)(C)CCC2(C)C [Compound 46]"
  Rat male pmol/min/mg 1 μM: "1781 pmol/min/mg"
- COMPOUND: "COc1cc(OC)c(NC(=O)c2ccc(Cc3cc4c(cc3C)CCCC4(C)C)o2)c(OC)c1 [Compound 183]"
  Rat male pmol/min/mg 1 μM: "1246 pmol/min/mg"
- COMPOUND: "COC(=O)[C@H]1CC[C@H](CNC(=O)c2ccc(Cc3cc4c(cc3C)C(C)(C)CCC4(C)C)o2)CC1 [Compound 68]"
  Rat male pmol/min/mg 1 μM: "8125 pmol/min/mg"
- COMPOUND: "COc1cc(OC)c(NC(=O)c2ccc(Cc3cc4c(cc3C)C(C)(C)CCC4(C)C)o2)c(OC)c1 [Compound 134]"
  Rat male pmol/min/mg 1 μM: "3909 pmol/min/mg"
- COMPOUND: "COc1cc(NS(C)(=O)=O)c(NC(=O)c2ccc(Cc3cc4c(cc3C)C(C)(C)CCC4(C)C)o2)c(OC)c1 [Compound 228]"
  Rat male pmol/min/mg 1 μM: "320 pmol/min/mg"
- COMPOUND: "COc1cc(OC)c(NC(=O)c2ccc(Cc3cc4c(cc3C)OCCC4(C)C)o2)c(OC)c1 [Compound 221]"
  Rat male pmol/min/mg 1 μM: "528 pmol/min/mg"
- COMPOUND: "COc1cccc(OC)c1NC(=O)c1ccc(Cc2c(C)c(C)cc(C)c2C)o1 [Compound 225]"
  Rat male pmol/min/mg 1 μM: "2180 pmol/min/mg"
- COMPOUND: "Cc1cc2c(cc1Cc1ccc(C(=O)NCc3cccc(CNc4nccc(N5CCOCC5)n4)c3)o1)C(C)(C)CCC2(C)C [Compound 150]"
  Rat male pmol/min/mg 1 μM: "3334 pmol/min/mg"
- COMPOUND: "COc1cc2c(cc1Cc1ccc(C(=O)Nc3c(OC)cc(OC)c(C#N)c3OC)o1)C(C)(C)CCC2(C)C [Compound 217]"
  Rat male pmol/min/mg 1 μM: "953 pmol/min/mg"
- COMPOUND: "Cc1cc2c(cc1Cc1ccc(C(=O)NCc3cccc(CNc4ncc(C)c(NCC5CCCO5)n4)c3)o1)C(C)(C)CCC2(C)C (centres unmarked) [Compound 151]"
  Rat male pmol/min/mg 1 μM: "3043 pmol/min/mg"
- COMPOUND: "COCCNc1nccc(NCc2cccc(CNC(=O)c3ccc(Cc4cc5c(cc4C)C(C)(C)CCC5(C)C)o3)c2)n1 [Compound 154]"
  Rat male pmol/min/mg 1 μM: "4481 pmol/min/mg"
- COMPOUND: "Cc1cc2c(cc1Cc1ccc(C(=O)NC[C@H]3CC[C@@H](CNC(=N)N)CC3)o1)C(C)(C)CCC2(C)C [Compound 23]"
  Rat male pmol/min/mg 1 μM: "141 pmol/min/mg"
